- Assay comment: Stat Signaling Pathway (AID 446);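 note: ME-180 cervical cancer cells given 40 pM IL-6 alongside compound; SIE-controlled beta-lactamase reporter measured as 460/530 nm FRET emission ratio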
- Cond: ME-180 (cervical carcinoma) SIE beta-lactamase reporter, IL-6 stimulated, 5 h; at 7.69 µM (top of the series) unless noted
Results filed as inconclusive are left out. Activity calls are given as the source filed them. Calls come from the whole dose curve; as a rule, active = well fitted curve in either direction with a large enough effect (not every such curve was filed as active); inconclusive = small, poorly fitted or top-dose-only effect, or another doubt; inactive = flat fitted curve, though single readings scatter.
Classes to choose from: y (active), n (inactive)

Worked cases, answers included:
Cn1cccc1C(=O)N1CCC2(CCCN(Cc3ccccc3)C2)CC1 n
Cc1cnc(CNc2cc(-c3ccccc3C(F)(F)F)ncn2)cn1 n
O=C(c1cnccn1)N1CCC[C@@]2(CCN(Cc3ccccc3)C2)C1 n
COCC(=O)N1CCC2(CCN(Cc3cc(C(F)(F)F)cc(C(F)(F)F)c3)CC2)CC1 n
COc1ccc(Oc2ncc3nc(-c4ccc(F)cc4)c(=O)n(C4CC4)c3n2)cc1 n
CNc1nc(-c2ccccc2C)nc2ccccc12 n
COc1ccc(-n2c(=O)c(-c3cccs3)nc3cnc(Nc4ccccc4)nc32)cc1 n
O=C(c1ccco1)N1CCC2(CCCN(c3ncccn3)C2)CC1 n
FC(F)(F)c1ccccc1-c1ccc2ncnc(NCCN3CCOCC3)c2c1 n
COc1ccc(CNc2ccnc(-c3ccoc3)n2)c(OC)c1 n

-- ask Please indicate how the test categorized COc1ccc(CNc2ccnc(-c3ccc(N(C)C)cc3)n2)c(OC)c1 .
-- reply n

-- ask Please indicate how the test categorized COc1ccc(C[C@@H]2c3cc(OC)c(OC)cc3CC[N@+]2(C)CCC(=O)OCCCCCOC(=O)CC[N@@+]2(C)CCc3cc(OC)c(OC)cc3[C@H]2Cc2ccc(OC)c(OC)c2)cc1OC .
-- reply n

-- ask Please indicate how the test categorized Cn1c(=O)c(-c2ccccc2)nc2cnc(OCc3ccccc3)nc21 .
-- reply n

-- ask Please indicate how the test categorized O=c1c(-c2ccc(F)cc2)nc2cncnc2n1C1CC1 .
-- reply n

-- ask Please indicate how the test categorized O=C(c1ccco1)N1CCC2(CC1)CCN(c1ccc(-c3ccccc3)cc1)CC2 .
-- reply n
